Tested On: Neurogenic locus notch homolog protein 2 (Homo sapiens) (UniProt Q04721)
Sequence (Q04721 whole entry, looked up): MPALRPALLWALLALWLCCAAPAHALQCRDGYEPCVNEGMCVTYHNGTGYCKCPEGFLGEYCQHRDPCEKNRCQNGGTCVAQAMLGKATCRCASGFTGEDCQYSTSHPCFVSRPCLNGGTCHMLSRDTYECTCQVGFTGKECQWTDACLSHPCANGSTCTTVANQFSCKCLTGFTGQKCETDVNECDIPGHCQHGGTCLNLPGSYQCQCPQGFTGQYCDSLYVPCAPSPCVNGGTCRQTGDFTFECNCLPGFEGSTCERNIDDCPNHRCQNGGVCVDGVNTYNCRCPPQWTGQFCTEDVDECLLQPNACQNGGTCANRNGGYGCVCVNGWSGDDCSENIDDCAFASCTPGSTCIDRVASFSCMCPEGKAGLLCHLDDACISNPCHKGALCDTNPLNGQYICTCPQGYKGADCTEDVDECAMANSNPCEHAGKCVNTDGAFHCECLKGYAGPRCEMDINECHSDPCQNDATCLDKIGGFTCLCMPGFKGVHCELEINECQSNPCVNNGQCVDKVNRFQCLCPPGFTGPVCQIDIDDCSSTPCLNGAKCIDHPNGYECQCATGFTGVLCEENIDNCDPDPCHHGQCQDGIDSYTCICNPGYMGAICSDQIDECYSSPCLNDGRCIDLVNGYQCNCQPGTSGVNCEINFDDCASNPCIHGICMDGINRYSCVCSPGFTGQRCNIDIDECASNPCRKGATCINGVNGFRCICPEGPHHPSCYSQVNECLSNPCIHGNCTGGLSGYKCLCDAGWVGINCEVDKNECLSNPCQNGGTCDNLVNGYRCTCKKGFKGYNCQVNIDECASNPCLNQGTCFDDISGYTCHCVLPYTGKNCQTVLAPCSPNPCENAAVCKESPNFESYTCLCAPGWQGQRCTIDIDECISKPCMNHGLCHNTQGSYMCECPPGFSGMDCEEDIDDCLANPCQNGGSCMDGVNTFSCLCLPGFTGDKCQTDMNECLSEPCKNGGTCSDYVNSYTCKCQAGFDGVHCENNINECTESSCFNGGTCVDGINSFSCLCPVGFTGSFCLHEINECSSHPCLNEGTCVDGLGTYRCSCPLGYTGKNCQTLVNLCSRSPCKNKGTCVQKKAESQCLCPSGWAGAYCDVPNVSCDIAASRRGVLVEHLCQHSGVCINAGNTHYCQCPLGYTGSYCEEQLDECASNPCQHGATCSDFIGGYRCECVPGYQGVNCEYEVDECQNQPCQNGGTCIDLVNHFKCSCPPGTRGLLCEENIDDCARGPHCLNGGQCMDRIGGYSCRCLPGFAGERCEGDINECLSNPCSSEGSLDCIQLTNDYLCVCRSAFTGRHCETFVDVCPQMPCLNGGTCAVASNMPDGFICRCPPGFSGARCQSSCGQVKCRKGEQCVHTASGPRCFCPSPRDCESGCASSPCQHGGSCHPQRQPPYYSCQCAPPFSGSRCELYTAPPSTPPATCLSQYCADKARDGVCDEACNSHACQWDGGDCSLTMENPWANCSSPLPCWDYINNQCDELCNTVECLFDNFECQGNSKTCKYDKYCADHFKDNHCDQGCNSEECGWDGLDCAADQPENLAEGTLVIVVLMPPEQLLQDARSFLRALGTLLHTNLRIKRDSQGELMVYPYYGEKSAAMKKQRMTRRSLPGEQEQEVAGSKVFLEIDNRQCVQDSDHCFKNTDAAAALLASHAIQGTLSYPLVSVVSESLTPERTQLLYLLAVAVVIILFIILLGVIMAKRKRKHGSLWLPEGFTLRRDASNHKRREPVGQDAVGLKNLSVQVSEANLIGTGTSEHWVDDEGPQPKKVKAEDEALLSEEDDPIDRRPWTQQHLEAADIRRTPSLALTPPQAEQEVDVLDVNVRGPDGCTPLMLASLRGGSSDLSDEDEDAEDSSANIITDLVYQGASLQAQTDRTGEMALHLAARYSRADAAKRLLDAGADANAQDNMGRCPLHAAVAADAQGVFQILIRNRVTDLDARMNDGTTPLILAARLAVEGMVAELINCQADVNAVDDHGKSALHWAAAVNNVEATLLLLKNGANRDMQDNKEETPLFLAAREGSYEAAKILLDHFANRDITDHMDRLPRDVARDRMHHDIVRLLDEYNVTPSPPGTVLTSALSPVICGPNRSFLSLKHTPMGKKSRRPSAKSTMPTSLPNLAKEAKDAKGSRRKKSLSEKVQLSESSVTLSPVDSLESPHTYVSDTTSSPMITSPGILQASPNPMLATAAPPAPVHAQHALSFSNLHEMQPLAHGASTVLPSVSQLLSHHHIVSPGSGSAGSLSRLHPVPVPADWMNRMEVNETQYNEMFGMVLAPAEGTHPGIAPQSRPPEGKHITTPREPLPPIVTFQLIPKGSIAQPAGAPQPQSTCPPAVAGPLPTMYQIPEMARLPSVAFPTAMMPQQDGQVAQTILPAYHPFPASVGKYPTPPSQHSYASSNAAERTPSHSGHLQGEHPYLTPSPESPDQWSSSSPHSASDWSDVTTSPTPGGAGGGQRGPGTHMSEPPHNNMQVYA
Assay Procedure: Notch2 binders on small-molecule microarrays, primary screen, biochemical, small-molecule microarray, 635 nm fluorescence, stem cell growth factors (AID 1073)
Measurement Context: Notch2 binding, higher = more signal
Entry flag: class 1 if composite z-score reaches 0.4; class 0 if it does not.

Compound	Assigned Class
CS(=O)(=O)CCOC(=O)C1=CC(c2ccc(CO)cc2)=CC(C2CC2)N(Cc2cc3c(cc2Br)OCO3)C=C1C(=O)OCCS(C)(=O)=O (configuration not stated)	class 1
O=C1C2C=CC(C(O)c3ccc(F)cc3)N(Nc3ccccc3)C2C(=O)N1c1ccccc1 (configuration not stated)	class 0

Lookup: Record CC(C)N1C(=O)c2ccccc2[C@@H](C(=O)NCCCN(C)C)[C@@H]1c1ccc(CO)cc1 ; criterion: composite z-score no lower than 0.4. Met?
Found: class 0

Lookup: Record Cc1cc(C)c(C(O)C2C=CC3C(=O)N(c4ccccc4)C(=O)C3N2Nc2ccc(C#N)cc2)c(C)c1 (configuration not stated) ; criterion: composite z-score no lower than 0.4. Met?
Found: class 1
